Values were extracted from paper PMC5421785.

# Experimental System: HLA-DRB1*04:01 (Homo sapiens, UniProt P01903+P01911, A100K/A169T/F76Y/I96L/K127E/L162R/M171V/N62H/P40V/Q125Y/R42H/S133A/S149N/S66Y/V115G/V209L/W38E)
# Construct: EBV transformed homozygous cell lines were used as sources of MHC molecules; endogenous in cells; host or cells: EBV transformed homozygous cell lines
# Assay Text: HLA class II peptide binding, inhibition of radiolabeled peptide binding to purified MHC
# Applied Conditions: citrullinated 15-mer peptide (X = citrulline); purified HLA-DRB1*04:01; read-out: DRB1*04:01 binding capacity, Cit peptide (IC50 nM)
Square brackets hold non-standard residues; d marks the D form. Peptide text beside a SMILES is read from it. Cit = NC(=O)NCCC[C@H](N)C(=O)O
Measured Property: IC50

Measured IC50, CC[C@H](C)[C@H](NC(=O)[C@@H](NC(=O)[C@H](CCC(N)=O)NC(=O)CNC(=O)[C@H](CC(=O)O)NC(=O)[C@H](CCCNC(N)=O)NC(=O)[C@@H](NC(=O)[C@H](CCC(=O)O)NC(=O)[C@@H](NC(=O)[C@@H](N)[C@@H](C)O)C(C)C)[C@@H](C)O)C(C)C)C(=O)N[C@@H](CC(N)=O)C(=O)N[C@@H](CCC(=O)O)C(=O)N[C@H](C(=O)N[C@@H](CO)C(=O)N[C@@H](CCC(N)=O)C(=O)O)[C@@H](C)O [TVETXDGQVINETSQ] (H-TVET[Cit]DGQVINETSQ-OH) : 14300 nM

Briefly, IC50 measured for N=C(N)NCCC[C@H](NC(=O)[C@H](CCC(=O)O)NC(=O)CNC(=O)[C@H](CCCNC(=N)N)NC(=O)[C@@H]1CCCN1C(=O)CN)C(=O)NCC(=O)N[C@@H](Cc1ccccc1)C(=O)N1CCC[C@H]1C(=O)NCC(=O)N[C@@H](CCC(=O)O)C(=O)N[C@@H](CCCNC(N)=O)C(=O)NCC(=O)N[C@@H](CO)C(=O)N1CCC[C@H]1C(=O)O [GPRGERGFPGEXGSP] (H-GPRGERGFPGE[Cit]GSP-OH) : > 40000 nM

Reported IC50 for CC(C)C[C@H](NC(=O)CNC(=O)[C@@H]1CCCN1C(=O)[C@H](Cc1ccccc1)NC(=O)CNC(=O)[C@H](CCCNC(N)=O)NC(=O)[C@@H](N)CCC(=O)O)C(=O)N1CCC[C@H]1C(=O)NCC(=O)N1CCC[C@H]1C(=O)N[C@@H](CO)C(=O)NCC(=O)N[C@@H](CCC(=O)O)C(=O)N1CCC[C@H]1C(=O)NCC(=O)O [EXGFPGLPGPSGEPG] (H-E[Cit]GFPGLPGPSGEPG-OH) was > 40000 nM

IC50 reported for this compound CSCC[C@H](NC(=O)[C@H](CCC(=O)O)NC(=O)[C@H](CCCNC(N)=O)NC(=O)[C@H](CCSC)NC(=O)[C@H](CCC(N)=O)NC(=O)[C@H](CCCNC(=N)N)NC(=O)[C@@H](N)CCC(=O)O)C(=O)N[C@@H](CCC(=O)O)C(=O)N[C@@H](CCC(=O)O)C(=O)N[C@@H](CC(N)=O)C(=O)N[C@@H](Cc1ccccc1)C(=O)N[C@@H](C)C(=O)N[C@H](C(=O)N[C@@H](CCC(=O)O)C(=O)N[C@@H](C)C(=O)O)C(C)C [ERQMXEMEENFAVEA] (H-ERQM[Cit]EMEENFAVEA-OH) : 3220 nM

Input C[C@H](NC(=O)CNC(=O)[C@H](C)NC(=O)[C@@H]1CCCN1C(=O)CNC(=O)[C@@H](NC(=O)[C@H](CCCNC(N)=O)NC(=O)CNC(=O)[C@H](CCCNC(=N)N)NC(=O)[C@@H](N)CCC(=O)O)[C@@H](C)O)C(=O)N[C@@H](C)C(=O)NCC(=O)N[C@@H](C)C(=O)N[C@@H](CCCNC(=N)N)C(=O)NCC(=O)O [ERGXTGPAGAAGARG] (H-ERG[Cit]TGPAGAAGARG-OH) . Output IC50: > 40000 nM
